Below, each entry is listed with its recorded HEK-Blue, IL-36α, IC50 (Fab).
# tgt: T1, human IL1RAP (hu-IL1RAP) on human cells (human, UniProt Q9NPH3 21-570)
# T1 sequence: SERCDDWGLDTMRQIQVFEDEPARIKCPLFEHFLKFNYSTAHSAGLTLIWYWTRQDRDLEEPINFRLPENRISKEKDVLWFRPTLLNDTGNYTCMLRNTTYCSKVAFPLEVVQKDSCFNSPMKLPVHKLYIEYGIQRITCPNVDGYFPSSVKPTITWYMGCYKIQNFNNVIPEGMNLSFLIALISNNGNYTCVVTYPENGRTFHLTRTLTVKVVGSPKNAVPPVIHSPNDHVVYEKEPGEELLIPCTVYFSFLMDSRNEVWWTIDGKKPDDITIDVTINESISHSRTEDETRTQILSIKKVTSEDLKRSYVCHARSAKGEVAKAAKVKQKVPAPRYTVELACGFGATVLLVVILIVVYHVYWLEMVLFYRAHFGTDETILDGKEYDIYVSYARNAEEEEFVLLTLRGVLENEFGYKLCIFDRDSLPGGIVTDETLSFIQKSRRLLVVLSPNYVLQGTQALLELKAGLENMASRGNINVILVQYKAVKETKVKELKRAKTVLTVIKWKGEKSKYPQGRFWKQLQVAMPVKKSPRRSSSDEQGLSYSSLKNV
# assay.protocol: cell-based or functional assay

# binder, HEK-Blue, IL-36α, IC50 (Fab)
records = [
    ("K17/H3 Fab (VL-A51Y/W92K, VH-V51S) (Fab, V domains shown, Fab with 8xHis tag) VH: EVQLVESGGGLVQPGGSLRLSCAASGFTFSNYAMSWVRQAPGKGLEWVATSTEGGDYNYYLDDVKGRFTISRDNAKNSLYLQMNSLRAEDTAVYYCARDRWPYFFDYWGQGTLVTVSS VL: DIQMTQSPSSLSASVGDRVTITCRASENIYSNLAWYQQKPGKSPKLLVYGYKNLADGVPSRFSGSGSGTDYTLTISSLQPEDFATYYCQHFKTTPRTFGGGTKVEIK", "800 pM"),
    ("K10/H3 Fab (VL-A51Y, VH-V51S) (Fab, V domains shown, Fab with 8xHis tag) VH: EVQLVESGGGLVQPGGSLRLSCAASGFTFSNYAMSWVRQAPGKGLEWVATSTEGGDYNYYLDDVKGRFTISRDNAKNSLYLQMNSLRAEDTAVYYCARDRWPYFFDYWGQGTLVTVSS VL: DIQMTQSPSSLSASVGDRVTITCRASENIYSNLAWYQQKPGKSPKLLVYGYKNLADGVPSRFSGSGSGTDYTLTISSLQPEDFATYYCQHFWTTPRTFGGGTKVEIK", "582 pM"),
    ("K10 Fab (VL A51Y) (Fab, V domains shown, Fab with 8xHis tag) VH: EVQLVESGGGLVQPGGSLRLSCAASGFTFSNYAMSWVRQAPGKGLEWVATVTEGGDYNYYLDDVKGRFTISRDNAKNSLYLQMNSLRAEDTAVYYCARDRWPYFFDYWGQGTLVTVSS VL: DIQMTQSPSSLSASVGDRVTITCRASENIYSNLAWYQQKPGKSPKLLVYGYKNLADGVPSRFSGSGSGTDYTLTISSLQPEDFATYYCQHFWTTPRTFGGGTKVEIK", "706 pM"),
    ("K13/H2 Fab (VL-A51Y/W92I, VH-R96D) (Fab, V domains shown, Fab with 8xHis tag) VH: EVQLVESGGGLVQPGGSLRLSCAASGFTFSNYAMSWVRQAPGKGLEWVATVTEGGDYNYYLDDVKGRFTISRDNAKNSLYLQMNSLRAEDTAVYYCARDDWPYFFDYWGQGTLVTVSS VL: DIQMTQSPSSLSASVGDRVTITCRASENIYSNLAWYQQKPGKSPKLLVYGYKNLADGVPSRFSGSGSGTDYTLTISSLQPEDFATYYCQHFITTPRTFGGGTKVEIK", "548 pM"),
    ("Parent Fab (Fab of h11C5_C59Y/A43S) (Fab, V domains shown, Fab with 8xHis tag; also called parental Fab of h11C5_C59Y/A43S) VH: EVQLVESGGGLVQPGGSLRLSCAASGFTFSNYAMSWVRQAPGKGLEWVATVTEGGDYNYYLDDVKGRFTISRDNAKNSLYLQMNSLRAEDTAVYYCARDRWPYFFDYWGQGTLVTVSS VL: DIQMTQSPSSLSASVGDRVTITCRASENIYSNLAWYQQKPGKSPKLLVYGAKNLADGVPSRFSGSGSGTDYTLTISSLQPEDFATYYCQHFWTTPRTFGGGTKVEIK", "5090 pM"),
    ("K10/H2 Fab (VL-A51Y, VH-R96D) (Fab, V domains shown, Fab with 8xHis tag) VH: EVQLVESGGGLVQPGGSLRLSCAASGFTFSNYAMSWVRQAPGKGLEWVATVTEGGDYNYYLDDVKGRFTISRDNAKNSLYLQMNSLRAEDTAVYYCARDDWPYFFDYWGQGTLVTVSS VL: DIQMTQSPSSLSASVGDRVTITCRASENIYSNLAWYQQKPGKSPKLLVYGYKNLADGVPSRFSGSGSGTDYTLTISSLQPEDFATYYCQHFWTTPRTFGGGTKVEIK", "481 pM"),
    ("K13/H3 Fab (VL-A51Y/W92I, VH-V51S) (Fab, V domains shown, Fab with 8xHis tag) VH: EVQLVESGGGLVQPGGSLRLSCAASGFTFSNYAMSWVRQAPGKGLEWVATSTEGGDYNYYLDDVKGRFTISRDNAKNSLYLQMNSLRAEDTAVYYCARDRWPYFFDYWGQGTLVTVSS VL: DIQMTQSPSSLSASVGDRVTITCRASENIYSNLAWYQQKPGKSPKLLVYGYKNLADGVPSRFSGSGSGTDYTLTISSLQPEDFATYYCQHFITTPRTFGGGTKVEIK", "462 pM"),
]
